For each record, write down the corresponding Injury rating, average per plot.
# Test system: navy dry beans (navy Vista)
# protocolDescription: Synergistic interactions of succinic acid and di-ammonium succinate with herbicidal compounds, navy dry beans
# Format: in vivo, dry bean (navy)
# recordedConditions: Day 1; scale 1-5; one application at 40 G/acre; treatments 1-4, 9-11 in Emsorb 6900/mineral oil/Hasten, 5-8, 12-14 in 0.3% Sylgard 309

Hey, quick one: what's Injury rating, average per plot for each of these?
1. CCCCCCCC(=O)O
2. O=C(O)CCC(=O)O
3. O=C([O-])c1ccccc1O.[Na+] [3% sodium salicylate, sodium salicylate]
4. N.N.O=C(O)CCC(=O)O [2.52% di-ammonium succinate, di-ammonium succinate]

1: 3.5; 2: 0; 3: 3.8; 4: 0

---

# protocolDescription: Measurement of pH values for test desiccants (Example 55)
# Assay type: physicochemical
Binary call on pH Value: yes from 2 upward, no beneath that.

The following molecules have reported results that may help.
{"molecule": "O=C(O)C(O)C(O)C(=O)O [L-Tartaric Acid (0.5%)]", "class": "no"}
{"molecule": "O=C(O)CCC(=O)O [Succinic Acid (1.0%)]", "class": "no"}
{"molecule": "O=C(O)CC(O)(CC(=O)O)C(=O)O [Citric Acid (0.5%)]", "class": "no"}
{"molecule": "CCCCCCCC(=O)O [Caprylic Acid (1.0%)]", "class": "yes"}
{"molecule": "O=C(O)CC(O)C(=O)O [L-Malic Acid (0.5%)]", "class": "no"}
{"molecule": "C[C@H](O)C(=O)O [L-Lactic Acid (0.5%)]", "class": "no"}
{"molecule": "O=C(O)CCC(=O)O [Succinic Acid (0.5%)]", "class": "no"}

# ---- query molecule ----
Item O=C([O-])c1ccccc1O.[Na+] [Sodium Salicylate (1.0%)] with pH Value of 2 or above?
yes

---

For each record, write down the corresponding Yellow Foliage, Overall Effect.
# System: Dry Beans
# protocolDescription: Synergistic relationship between succinic or citric acid and caprylic acid, testing dry beans
# Type: in vivo
# recordedConditions: 3 days after single foliar application; dry bean Vista; 5 equals profound desiccation
Give bare numbers.

Sample answers from the record:
{"compound": "O=C([O-])c1ccccc1O.[Na+] [Na Salicylate (2%)]", "observedProperty": "Yellow Foliage, Overall Effect", "readoutNumber": 5}
{"compound": "O=C(O)CCC(=O)O", "observedProperty": "Yellow Foliage, Overall Effect", "readoutNumber": 0}
{"compound": "O=C(O)CC(O)(CC(=O)O)C(=O)O", "observedProperty": "Yellow Foliage, Overall Effect", "readoutNumber": 0}
{"compound": "O=C([O-])c1ccccc1O.[Na+] [Na Salicylate (0.5%)]", "observedProperty": "Yellow Foliage, Overall Effect", "readoutNumber": 1}

What value of Yellow Foliage, Overall Effect has been recorded for this entry: `CCCCCCCC(=O)O`
2

---

# Tested on: navy dry beans (navy Vista)
# protocolDescription: Synergistic interactions of succinic acid and di-ammonium succinate with herbicidal compounds, navy dry beans
# Format: in vivo, dry bean (navy)
# recordedConditions: Day 12, pods
observedProperty: % desiccation (Day 12), pods (%)
One number for each entry, in %.

Sample answers from the record:
{"compound": "O=C(O)CCC(=O)O [0.5% succinic acid, succinic acid]", "% desiccation (Day 12), pods / %": 0}
{"compound": "N.N.O=C(O)CCC(=O)O [2.52% di-ammonium succinate, di-ammonium succinate]", "% desiccation (Day 12), pods / %": 0}
{"compound": "O=C([O-])c1ccccc1O.[Na+] [3% sodium salicylate, sodium salicylate]", "% desiccation (Day 12), pods / %": 90}

What value of % desiccation (Day 12), pods has been recorded for this entry: CCCCCCCC(=O)O [3% caprylic, caprylic acid]
80

---

# System: soybeans
# protocolDescription: Synergy comparisons of various organic acids with caprylic acid, testing soybeans
# Assay type: in vivo
# recordedConditions: 3 days after a single foliar application; average of 2 sites; soybean Stine 2250
observedProperty: Foliage Affected (%)
One number for each entry, in %.

Sample answers from the record:
{"molecule": "O=C(O)CCC(=O)O", "targetEntity": "soybeans", "readoutNumber": 0}
{"molecule": "CCCCCCCC(=O)O", "targetEntity": "soybeans", "readoutNumber": 5}
{"molecule": "O=C(O)CC(O)C(=O)O (stereo not drawn)", "targetEntity": "soybeans", "readoutNumber": 0}

Hey, quick one: what's Foliage Affected (%) for each of these?
1. C[C@H](O)C(=O)O
2. O=C(O)C(O)C(O)C(=O)O (stereo not drawn)
3. O=C(O)CC(O)(CC(=O)O)C(=O)O

0
0
0

---

# Tested on: navy dry beans (navy Vista)
# protocolDescription: Synergistic interactions of succinic acid and di-ammonium succinate with herbicidal compounds, navy dry beans
# Format: in vivo, dry bean (navy)
# recordedConditions: Day 12; scale 1-5
observedProperty: Injury rating, average per plot

Sample answers from the record:
{"molecule": "CCCCCCCC(=O)O", "result": 4.2}
{"molecule": "N.N.O=C(O)CCC(=O)O [2.52% di-ammonium succinate, di-ammonium succinate]", "result": 0}
{"molecule": "O=C(O)CCC(=O)O", "result": 0}

API: the following record is the query input.
What value of Injury rating, average per plot has been recorded for this entry: O=C([O-])c1ccccc1O.[Na+] [3% sodium salicylate, sodium salicylate]
4.7

---

# Test system: black beans (dry bean variety T39)
# protocolDescription: Synergistic interactions of succinic acid and di-ammonium succinate with other herbicidal compounds, dry beans (black)
# Assay type: in vivo
# recordedConditions: Day 12, foliage
# From the text: The herbicides were applied in the “spray to drip” amount or at a calibrated 20-60 gallons/acre. “Spray to drip” is an uncalibrated application of fluid to foliage, where sufficient spray volume is used to sufficiently saturate the foliage surface until excess fluid begins to drip from the foliage.
For each record, write down the corresponding % desiccation (Day 12), foliage.
Answers are plain numbers, in %.

{"molecule": "CCCCCCCC(=O)O", "readoutNumber": 80}

Hey, quick one: what's % desiccation (Day 12), foliage for each of these?
1. N.N.O=C(O)CCC(=O)O [2.52% di-ammonium succinate, di-ammonium succinate]
2. O=C(O)CCC(=O)O
3. O=C([O-])c1ccccc1O.[Na+] [3% sodium salicylate, sodium salicylate]

0
0
95

---

# Tested on: navy dry beans (navy Vista)
# protocolDescription: Synergistic interactions of succinic acid and di-ammonium succinate with herbicidal compounds, navy dry beans
# Format: in vivo, dry bean (navy)
# recordedConditions: Day 12, vines
observedProperty: % desiccation (Day 12), vines (%)
Numbers only, in %.

Sample answers from the record:
{"compound": "O=C(O)CCC(=O)O [0.5% succinic acid, succinic acid]", "% desiccation (Day 12), vines (%)": 0}
{"compound": "CCCCCCCC(=O)O [3% caprylic, caprylic acid]", "% desiccation (Day 12), vines (%)": 10}
{"compound": "O=C([O-])c1ccccc1O.[Na+] [3% sodium salicylate, sodium salicylate]", "% desiccation (Day 12), vines (%)": 70}

Test system navy dry beans (navy Vista); read-out % desiccation (Day 12), vines; what value for N.N.O=C(O)CCC(=O)O [2.52% di-ammonium succinate, di-ammonium succinate] ?
0
